Entries and their measured pIC50 follow.
Target: Dual specificity tyrosine-phosphorylation-regulated kinase 1A (Homo sapiens)
Assay: Inhibition of DYRK1A (unknown origin)
Lab note: report pIC50 as minus log10 of the concentration in molar units, number only.

Enquiry: Fill in the recorded pIC50 for this compound, with Dual specificity tyrosine-phosphorylation-regulated kinase 1A (Homo sapiens) as test system: CN1CCc2cc3c(c4c2C1Cc1ccccc1-4)OCO3 (stereo unspecified)
Return: 4.82

Enquiry: Fill in the recorded pIC50 for this compound, with Dual specificity tyrosine-phosphorylation-regulated kinase 1A (Homo sapiens) as test system: `CO[C@H]1[C@H](O)[C@@H](O)[C@H](n2c3c(Cl)cccc3c3c4c(c5c6cccc(Cl)c6[nH]c5c32)C(=O)NC4=O)O[C@@H]1CO`
Return: 7.72

Enquiry: Fill in the recorded pIC50 for this compound, with Dual specificity tyrosine-phosphorylation-regulated kinase 1A (Homo sapiens) as test system: `CCOc1cc(/C=C2\SC(=S)NC2=O)ccc1OC`
Return: 7.22

Enquiry: Fill in the recorded pIC50 for this compound, with Dual specificity tyrosine-phosphorylation-regulated kinase 1A (Homo sapiens) as test system: `N=C1NC(=O)/C(=C/c2ccc3c(c2)CCO3)S1`
Return: 8.10

---

Target: Dual specificity tyrosine-phosphorylation-regulated kinase 1A (Homo sapiens, UniProt Q13627)
Experiment: Inhibition of DYRK1A (unknown origin) in presence of ATP
quantity.measured: pIC50
Lab note: report pIC50 as minus log10 of the concentration in molar units, number only.

{"input.smiles": "Cc1cc(=O)oc2cc3cc(O)ccc3cc12", "pIC50": 6.22}

# evaluate next
Enquiry: Request the reported pIC50 associated with `Cc1cc(=O)oc2cc3c([N+](=O)[O-])c(O)ccc3cc12`
Return: 4.82

---

Biological target: Dual specificity tyrosine-phosphorylation-regulated kinase 2 (Homo sapiens)
Sequence (Q92630 whole entry): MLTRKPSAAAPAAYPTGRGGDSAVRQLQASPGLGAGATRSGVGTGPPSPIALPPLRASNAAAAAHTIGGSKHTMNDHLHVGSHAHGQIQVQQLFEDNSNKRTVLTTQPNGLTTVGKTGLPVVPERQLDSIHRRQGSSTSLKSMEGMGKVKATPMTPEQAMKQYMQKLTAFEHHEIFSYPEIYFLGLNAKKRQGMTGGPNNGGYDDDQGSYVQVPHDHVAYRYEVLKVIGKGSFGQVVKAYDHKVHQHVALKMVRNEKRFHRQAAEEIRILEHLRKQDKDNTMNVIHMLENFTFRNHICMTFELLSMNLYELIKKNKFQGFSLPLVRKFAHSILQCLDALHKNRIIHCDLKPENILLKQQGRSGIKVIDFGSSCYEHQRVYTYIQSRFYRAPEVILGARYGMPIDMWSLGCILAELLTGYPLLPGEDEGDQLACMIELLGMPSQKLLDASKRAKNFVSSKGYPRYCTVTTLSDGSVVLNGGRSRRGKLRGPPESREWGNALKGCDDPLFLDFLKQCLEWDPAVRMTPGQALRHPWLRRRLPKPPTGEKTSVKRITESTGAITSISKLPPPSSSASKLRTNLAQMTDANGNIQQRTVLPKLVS
quantity.measured: IC50 (µM)
# value in µM; strip the unit string

Enquiry: Request the reported IC50 associated with `COc1ccc2c(c1)[nH]c1c(C)nccc12`
Return: 1.9

---

Molecular target: Dual specificity tyrosine-phosphorylation-regulated kinase 1A (Homo sapiens, UniProt Q13627)
quantity.measured: Ki (µM)
# value in µM; strip the unit string

Enquiry: Request the reported Ki associated with O=C1c2ccc(O)c(O)c2C(=O)c2c(O)ccc(O)c21 [QUINALIZARIN]
Return: 5.85
